Entry source: the supplement of paper PMC11208160

- EXPERIMENT_DESCRIPTION: recombinant UMI read abundance after kanamycin selection (control-corrected) (log10(CPM+1)); higher = more efficient recombination; extreme values may be limits of the assay; sequences stand for … in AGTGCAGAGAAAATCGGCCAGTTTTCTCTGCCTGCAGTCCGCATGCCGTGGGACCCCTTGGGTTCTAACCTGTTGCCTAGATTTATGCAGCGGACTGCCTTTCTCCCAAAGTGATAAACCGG…AGGTTGGTTTCACT; site = the 11-nt donor;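 also: IS621 bridge recombinase in Escherichia coli cells against a fixed T5 target plasmid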
Assign satisfied to entries whose recombinant UMI read abundance (log10) meets or exceeds 0.009; assign not satisfied to the rest.

BIOSEQUENCE: GTTTAAACATGGACCGGTTTTCCCGGTAATCCGTATTTGGA (site GTTTAAACTTC)
CLASS_NAME: satisfied
--
BIOSEQUENCE: CCCTCCTCATGGACCGGTTTTCCCGGTAATCCGTATTTGCC (site CTCTCCTCTGG)
CLASS_NAME: satisfied
--
BIOSEQUENCE: CGCCGTTCATGGACCGGTTTTCCCGGTAATCCGTATTTGCT (site CGCCGTGCTAG)
CLASS_NAME: not satisfied
--
BIOSEQUENCE: CTGCTAACATGGACCGGTTTTCCCGGTAATCCGTATTTGGA (site CTCCTAACTTC)
CLASS_NAME: satisfied
--
BIOSEQUENCE: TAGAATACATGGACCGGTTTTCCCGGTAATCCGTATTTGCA (site TAGAATCCTTG)
CLASS_NAME: not satisfied
--
BIOSEQUENCE: TCCAATGCATGGACCGGTTTTCCCGGTAATCCGTATTTGCC (site TCCAATCCTGG)
CLASS_NAME: not satisfied
--
BIOSEQUENCE: GGAGGTTCATGGACCGGTTTTCCCGGTAATCCGTATTTGAT (site GGAGGTTCTAT)
CLASS_NAME: satisfied
--
BIOSEQUENCE: ATACAGCCATGGACCGGTTTTCCCGGTAATCCGTATTTGGT (site ATACAGCCTAC)
CLASS_NAME: satisfied

* * *

- EXPERIMENT_DESCRIPTION: recombinant UMI read abundance after kanamycin selection (control-corrected) (log10(CPM+1)); higher = more efficient recombination; extreme values may be limits of the assay; sequences stand for … in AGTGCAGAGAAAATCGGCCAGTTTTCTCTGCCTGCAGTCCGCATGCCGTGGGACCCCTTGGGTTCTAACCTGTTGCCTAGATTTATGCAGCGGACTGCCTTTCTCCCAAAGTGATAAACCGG…AGGTTGGTTTCACT; site = the 11-nt donor

BIOSEQUENCE: CGGGCACCATGGACCGGTTTTCCCGGTAATCCGTATTTGAT (site CGGGCACCTAT)
recombinant UMI read abundance (log10): 0
--
BIOSEQUENCE: AGGAATCCATGGACCGGTTTTCCCGGTAATCCGTATTTGTT (site CGGAATCCTAA)
recombinant UMI read abundance (log10): 0.0029
--
BIOSEQUENCE: ACAGCTACATGGACCGGTTTTCCCGGTAATCCGTATTTGTG (site ACACCTACTCA)
recombinant UMI read abundance (log10): 0.156
--
BIOSEQUENCE: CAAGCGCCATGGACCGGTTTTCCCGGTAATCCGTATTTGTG (site CAAGCGCCTCC)
recombinant UMI read abundance (log10): 0.0342
--
BIOSEQUENCE: CCCTCGCCATGGACCGGTTTTCCCGGTAATCCGTATTTGCC (site CCCTAGCCTGG)
recombinant UMI read abundance (log10): 0
--
BIOSEQUENCE: CTGTCGTCATGGACCGGTTTTCCCGGTAATCCGTATTTGTG (site CTGTCGTCTCA)
recombinant UMI read abundance (log10): 0.831
--
BIOSEQUENCE: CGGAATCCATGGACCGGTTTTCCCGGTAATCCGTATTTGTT (site CGGAGTCCTGA)
recombinant UMI read abundance (log10): 0
--
BIOSEQUENCE: AGCCTTGCATGGACCGGTTTTCCCGGTAATCCGTATTTGAC (site AGCCTTCCTGT)
recombinant UMI read abundance (log10): 0
--
BIOSEQUENCE: CACTGGGCATGGACCGGTTTTCCCGGTAATCCGTATTTGGA (site CACTCGGCTTC)
recombinant UMI read abundance (log10): 0.0182
--
BIOSEQUENCE: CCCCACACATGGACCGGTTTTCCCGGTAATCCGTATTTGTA (site CCCCACGCTTA)
recombinant UMI read abundance (log10): 0.0198
--
BIOSEQUENCE: ACGACTACATGGACCGGTTTTCCCGGTAATCCGTATTTGAC (site ATGACTACTGT)
recombinant UMI read abundance (log10): 1.69
--
BIOSEQUENCE: CGGGATCCATGGACCGGTTTTCCCGGTAATCCGTATTTGTT (site CGGAATCCTAA)
recombinant UMI read abundance (log10): 0.736
--
BIOSEQUENCE: CCGATCTCATGGACCGGTTTTCCCGGTAATCCGTATTTGAG (site CCGATCTCTCT)
recombinant UMI read abundance (log10): 0.00289
--
BIOSEQUENCE: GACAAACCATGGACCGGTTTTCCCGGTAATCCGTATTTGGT (site GTCAAACCTAC)
recombinant UMI read abundance (log10): 0
--
BIOSEQUENCE: GGCCAAACATGGACCGGTTTTCCCGGTAATCCGTATTTGAC (site GGCCAAACTGT)
recombinant UMI read abundance (log10): 1.73
--
BIOSEQUENCE: CCCTAGCCATGGACCGGTTTTCCCGGTAATCCGTATTTGGC (site CCCTAGCCTGC)
recombinant UMI read abundance (log10): 0
--
BIOSEQUENCE: GATGGGACATGGACCGGTTTTCCCGGTAATCCGTATTTGAC (site GATGGGACTGT)
recombinant UMI read abundance (log10): 2.75
--
BIOSEQUENCE: GTCGCATCATGGACCGGTTTTCCCGGTAATCCGTATTTGGA (site GTCGCATCTTC)
recombinant UMI read abundance (log10): 2.05
